System: Saccharomyces cerevisiae
Assay: Inhibition of SV40 T antigen-stimulated Hsp70 ATPase in yeast assessed as ATP hydrolysis relative to control
Consider the cut-off -2. If the recorded Fold change is strictly smaller, the label is fulfilled; if not, the label is not fulfilled.

compound: CCCCCCN(C(=O)CCCCCN1C(=O)NC(c2ccc(-c3ccccc3)cc2)C(C(=O)OCc2ccccc2)=C1C)C(C(=O)NCCCC)c1ccccc1 (stereo not given)
category: not fulfilled

compound: CCCCCCN(C(=O)CCCCCN1C(=O)NC(C2CCCCC2)C(C(=O)OCc2ccccc2)=C1C)C(C(=O)NCCCC)c1ccc(OCC(=O)OC)c(C(=O)OC)c1 (stereo not given)
category: fulfilled

compound: CC1=C(C(=O)OCc2ccccc2)C(c2ccc(C3CCCCC3)cc2)NC(=O)N1CCCCCC(=O)O (stereo not given)
category: fulfilled

compound: CC1=C(C(=O)OCc2ccccc2)C(c2ccc(Cl)cc2)NC(=O)N1CCCCCC(=O)O (stereo not given)
category: not fulfilled

compound: CCCCCCN(C(=O)CCCCCN1C(=O)NC(c2ccc(-c3ccccc3)cc2)C(C(=O)OCc2ccccc2)=C1C)C(C(=O)NCCCC)c1ccc(-c2ccccc2)cc1 (stereo not given)
category: not fulfilled

compound: CC1=C(C(=O)OCc2ccccc2)C(c2ccccc2)NC(=O)N1CCCCCC(=O)O (stereo not given)
category: not fulfilled

compound: CCCCCCN(C(=O)CCCCCN1C(=O)NC(c2ccc(C3CCCCC3)cc2)C(C(=O)OCc2ccccc2)=C1C)C(C(=O)NCCCC)c1ccc(OCC(=O)OC)c(C(=O)OC)c1 (stereo not given)
category: not fulfilled

compound: CCCCCCN(C(=O)CCCCCN1C(=O)NC(c2ccc(-c3ccccc3)cc2)C(C(=O)OCc2ccccc2)=C1C)C(C(=O)NCCCC)c1ccc(OCC(=O)OC)cc1 (stereo not given)
category: not fulfilled

compound: CCCCCCN(C(=O)CCCCCN1C(=O)NC(c2ccccc2)C(C(=O)OCc2ccccc2)=C1C)C(C(=O)NCCCC)c1ccc(OCC(=O)OC)c(C(=O)OC)c1 (stereo not given)
category: not fulfilled

compound: CC1=C(C(=O)OCc2ccccc2)C(c2ccccc2-c2ccccc2)NC(=O)N1CCCCCC(=O)O (stereo not given)
category: fulfilled

compound: CC1=C(C(=O)OCc2ccccc2)C(C2CCCCC2)NC(=O)N1CCCCCC(=O)O (stereo not given)
category: not fulfilled

compound: COC(=O)CCCCCN1C(=O)NC(c2ccccc2)C(C(=O)OCc2ccccc2)=C1C (stereo not given)
category: not fulfilled

compound: CC1=C(C(=O)OCc2ccccc2)C(c2ccc(C(F)(F)F)cc2)NC(=O)N1CCCCCC(=O)O (stereo not given)
category: not fulfilled

###

Experiment: Binding affinity to Hsp70
quantity-name: Kd (µM)

compound: N=C(N)NCCCCCCC(=O)NC(O)C(=O)NCCCCNCCCN (stereo unspecified) [GUSPERIMUS]
quantity-name: Kd
units-symbol: µM
recorded-value: 4

###

System: Saccharomyces cerevisiae
Test: Inhibition of SV40 T antigen-stimulated Hsp70 ATPase in yeast assessed as ATP hydrolysis relative to control
Consider the cut-off -1. If the recorded Fold change is strictly smaller, the label is TRUE; if not, the label is FALSE.

molecule: CCCCCCN(C(=O)CCCCCN1C(=O)NC(c2cccc([N+](=O)[O-])c2)C(C(=O)OCc2ccccc2)=C1C)C(C(=O)NCCCC)c1ccc(OCC(=O)OC)c(C(=O)OC)c1 (stereo not drawn)
measured-on: Saccharomyces cerevisiae
category: TRUE

molecule: CCCCNC(=O)C(c1ccc(OCC(=O)OC)c(C(=O)OC)c1)N(CCc1ccccc1)C(=O)CCCCCN1C(=O)NC(c2ccc(-c3ccccc3)cc2)C(C(=O)OCc2ccccc2)=C1C (stereo not drawn)
measured-on: Saccharomyces cerevisiae
category: FALSE

molecule: CCCCNC(=O)C(c1ccc(OCC(=O)OC)c(C(=O)OC)c1)N(CCC1=CCCCC1)C(=O)CCCCCN1C(=O)NC(c2ccc(-c3ccccc3)cc2)C(C(=O)OCc2ccccc2)=C1C (stereo not drawn)
measured-on: Saccharomyces cerevisiae
category: TRUE

molecule: CCCCCCN(C(=O)CCCCCN1C(=O)NC(c2ccc(-c3ccccc3)cc2)C(C(=O)OCc2ccccc2)=C1C)C(C(=O)NCCCC)c1ccc(O)c(C(=O)OC)c1 (stereo not drawn)
measured-on: Saccharomyces cerevisiae
category: FALSE

molecule: CCCCNC(=O)C(c1ccc(-c2ccccc2)cc1)N(CCN1CCOCC1)C(=O)CCCCCN1C(=O)NC(c2ccc([N+](=O)[O-])cc2)C(C(=O)OCc2ccccc2)=C1C (stereo not drawn)
measured-on: Saccharomyces cerevisiae
category: TRUE

molecule: CCCCCCN(C(=O)CCCCCN1C(=O)NC(c2ccc(Cl)cc2)C(C(=O)OCc2ccccc2)=C1C)C(C(=O)NCCCC)c1ccc(OCC(=O)OC)c(C(=O)OC)c1 (stereo not drawn)
measured-on: Saccharomyces cerevisiae
category: TRUE

molecule: CCCCNC(=O)C(c1ccc(OCC(=O)OC)c(C(=O)OC)c1)N(Cc1ccccc1)C(=O)CCCCCN1C(=O)NC(c2ccc(-c3ccccc3)cc2)C(C(=O)OCc2ccccc2)=C1C (stereo not drawn)
measured-on: Saccharomyces cerevisiae
category: TRUE

molecule: COC(=O)CCCCCN1C(=O)NC(C2CC2)C(C(=O)OCc2ccccc2)=C1C (stereo not drawn)
measured-on: Saccharomyces cerevisiae
category: FALSE

molecule: CCCCNC(=O)C(c1ccc(OCC(=O)OC)c(C(=O)OC)c1)N(CCc1ccccn1)C(=O)CCCCCN1C(=O)NC(c2ccc(-c3ccccc3)cc2)C(C(=O)OCc2ccccc2)=C1C (stereo not drawn)
measured-on: Saccharomyces cerevisiae
category: TRUE

molecule: CCCCNC(=O)C(c1ccc(OCC(=O)OC)c(C(=O)OC)c1)N(Cc1ccccn1)C(=O)CCCCCN1C(=O)NC(c2ccc(-c3ccccc3)cc2)C(C(=O)OCc2ccccc2)=C1C (stereo not drawn)
measured-on: Saccharomyces cerevisiae
category: TRUE

molecule: CC1=C(C(=O)OCc2ccccc2)C(c2ccc3ccccc3c2)NC(=O)N1CCCCCC(=O)O (stereo not drawn)
measured-on: Saccharomyces cerevisiae
category: TRUE

molecule: CC1=C(C(=O)OCc2ccccc2)C(c2cccc([N+](=O)[O-])c2)NC(=O)N1CCCCCC(=O)O (stereo not drawn)
measured-on: Saccharomyces cerevisiae
category: FALSE

molecule: CCCCCCN(C(=O)CCCCCN1C(=O)NC(c2ccc(-c3ccccc3)cc2)C(C(=O)OCc2ccccc2)=C1C)C(C(=O)NCCCC)c1ccc(OCC(=O)O)c(C(=O)O)c1 (stereo not drawn)
measured-on: Saccharomyces cerevisiae
category: TRUE
